- System: HS 578T breast
- experimental-protocol: NCI tumour cell line growth inhibition, 48 h; in the data active = GI50 below about 0.43 µM; inactive = the rest
Classes used: active, inactive

[[record]]
compound = "O=C(Nc1ccc(Cl)cc1)c1cc2cc(F)ccc2cc1O"
group = "inactive"

[[record]]
compound = "N/C(=N\\c1nc2ccccc2s1)NC(=O)Nc1ccccc1Cl"
group = "active"

[[record]]
compound = "CN(C)c1ccc2cc(-c3cc4c(oc3=O)-c3ccccc3OC4O)c(=O)oc2c1 (stereo not given)"
group = "inactive"

[[record]]
compound = "C=C1SC(=Nc2ccccc2Cl)N(C(=O)c2sc3ccccc3c2Cl)C1(C)C"
group = "inactive"

[[record]]
compound = "CCn1cc(C(=O)N/N=C/c2cccc(F)c2)c(=O)c2cc(F)c(N3CCNC(C)C3)c(F)c21 (stereo not given)"
group = "inactive"

[[record]]
compound = "O=C1CCC2=C3C4CCCCC4C(=O)C4CCCC(OC2C1)C34 (stereo not given)"
group = "inactive"

[[record]]
compound = "O=S(=O)(NCCCNc1cc(-c2cn(-c3ccccc3)nc2-c2cccc(O)c2)ccn1)c1cccc2ccccc12"
group = "inactive"

[[record]]
compound = "CCC1CCCCN1C(=S)N/N=C(\\C)c1ccccn1 (stereo not given)"
group = "inactive"

[[record]]
compound = "CCOC(=O)c1c(C)[nH]c(/C=C2\\N=C(c3ccc[nH]3)C=C2OC)c1C"
group = "active"

[[record]]
compound = "C[C@@H](Oc1cc(NS(=O)(=O)N2CCC2)nc(SCc2cccc(F)c2F)n1)[C@@H](O)CO"
group = "inactive"


====

- Test system: UO-31 renal
- experimental-protocol: NCI tumour cell line growth inhibition, 48 h
observable: TGI (µM)

[[record]]
compound = "Cc1ccc(S(=O)(=O)/N=C(\\[O-])C2=C(c3ccccc3)NN(C)c3nc4cccc[n+]4nc32)cc1"
value_relation_sign = ">"
readout_number = 100

[[record]]
compound = "O=c1[nH]c2ccc(CC(=S)N3CCN(c4ccccc4)CC3)cc2o1"
value_relation_sign = ">"
readout_number = 100

[[record]]
compound = "CCN(CC)CCOC(=O)/C(=C/c1ccc(OC)cc1)c1cc(OC)c(OC)c(OC)c1"
value_relation_sign = "="
readout_number = 31.9

[[record]]
compound = "COc1ccccc1N1CCN(C(=O)c2ccc(NS(=O)(=O)c3cccc4cccnc34)cc2)CC1"
value_relation_sign = ">"
readout_number = 100

[[record]]
compound = "CC(=O)c1c(-c2ccccc2)c(-c2ccc(OCCN(C)C)cc2)n2ccccc12"
value_relation_sign = "="
readout_number = 32.1

[[record]]
compound = "NCCCc1c(-c2ccccc2)nc(N)[nH]c1=O"
value_relation_sign = ">"
readout_number = 100

[[record]]
compound = "O=C(Nc1ccc(Cl)cc1)c1cc2cc(F)ccc2cc1O"
value_relation_sign = ">"
readout_number = 100

[[record]]
compound = "COc1cc2c3c(n(Cc4ccccc4)c(=O)c2cc1OC)-c1ccccc1C3=O"
value_relation_sign = ">"
readout_number = 100

[[record]]
compound = "N/C(=N\\c1nc2ccccc2s1)NC(=O)Nc1ccccc1Cl"
value_relation_sign = "="
readout_number = 21.2

[[record]]
compound = "O=C(O)CCSC(=O)Nc1cccc([N+](=O)[O-])c1"
value_relation_sign = ">"
readout_number = 100

[[record]]
compound = "NC1=NC(c2ccccc2)CC(c2cc(Cl)cc(Br)c2O)=N1 (stereo unspecified)"
value_relation_sign = "="
readout_number = 32.3

[[record]]
compound = "OCCN=C1c2ccccc2C2C(c3ccccc31)C1c3ccccc3C(=NCCO)c3ccccc3C21 (stereo unspecified)"
value_relation_sign = "="
readout_number = 32.6

[[record]]
compound = "O=C(/C=C\\Nc1ccccc1O)C(Cl)(Cl)Cl"
value_relation_sign = "="
readout_number = 76.5

[[record]]
compound = "Cc1cc(O)c(/C=N/c2nc(-c3cccc([N+](=O)[O-])c3)cs2)c(=O)o1"
value_relation_sign = ">"
readout_number = 100

[[record]]
compound = "Cc1cccc2c1NC(=O)[C@@]21[C@H](C(=O)c2ccccc2)[C@]2(C(=O)Nc3ccccc32)[C@H]2CCCN21"
value_relation_sign = ">"
readout_number = 100

[[record]]
compound = "CCOC(=O)C#Cc1ccc([N+](=O)[O-])cc1"
value_relation_sign = "="
readout_number = 3.15

[[record]]
compound = "COc1ccc2c(c1)CCCN1CCc3cc(OC)c(OC)cc3C21 (stereo unspecified)"
value_relation_sign = ">"
readout_number = 100

[[record]]
compound = "N#C[C@@]12CCCC(=O)[C@@H]1[C@H]1CCC[C@H]12"
value_relation_sign = "="
readout_number = 30

[[record]]
compound = "C=Cc1cc2c(cc1O)CC[C@@H]1[C@@H]2CC[C@]2(C)[C@@H](O)CC[C@@H]12"
value_relation_sign = "="
readout_number = 20.5

[[record]]
compound = "CN(C)Cc1cccc(CN(C)C)[c]1[Sn]([Br])([c]1ccccc1)[c]1ccccc1"
value_relation_sign = "="
readout_number = 26.8

[[record]]
compound = "CC1=C2C(=O)C(C)(C)C=C2C(=O)[C@](C)(O)C12CC2"
value_relation_sign = ">"
readout_number = 1


====

Listed below: TGI values for each entry.
- Tested on: CCRF-CEM leukemia
- experimental-protocol: NCI tumour cell line growth inhibition, 48 h
observable: TGI

[[record]]
compound = "CCN(CC)C(=O)CNC(=O)OC(C)(C)C"
result = "> 100 µM"

[[record]]
compound = "CC(C)c1cccc(C(C)C)c1N=C(N)C#N"
result = "> 100 µM"

[[record]]
compound = "O[C@H]1[C@H](O)[C@H](O)CN2CCC[C@@H](O)[C@H]12"
result = "> 100 µM"

[[record]]
compound = "Clc1ccc2c(NCCNc3ccnc4cc(Cl)ccc34)ccnc2c1"
result = "46.2 µM"

[[record]]
compound = "CC(=O)O[C@H]1C(=O)[C@@]2(C)[C@H]([C@H](OC(=O)c3ccccc3)[C@]3(O)C[C@H](OC(=O)[C@H](O)[C@@H](NC(=O)CC(C)C)c4ccccc4)C(C)=C1C3(C)C)[C@]1(OC(C)=O)CO[C@@H]1C[C@@H]2O"
result = "> 10 µM"

[[record]]
compound = "COc1cc([C@@H]2c3cc4c(cc3[C@H](OC(C)=O)[C@H]3COC(=O)[C@H]23)OCO4)cc(OC)c1OC"
result = "> 100 µM"

[[record]]
compound = "CC1=C(C(=O)Nc2ccccc2)C(c2ccc(C)o2)C(C#N)=C(SCc2ccccc2)N1 (configuration not stated)"
result = "> 100 µM"

[[record]]
compound = "CCCC#CC(O)(C(=O)OC1CCN(C)CC1)C1CCCCC1 (configuration not stated)"
result = "> 100 µM"

[[record]]
compound = "Cc1ccc(NC(=O)CC/C(CC(=O)c2ccc(Cl)cc2)=N\\NC(=O)C(=O)NN)cc1C"
result = "> 100 µM"

[[record]]
compound = "CC(C)(C)OC(=O)NC(Cc1ccc(OCc2ccccc2)cn1)C(=O)N1CCSCC1 (configuration not stated)"
result = "> 100 µM"

[[record]]
compound = "OCCN=C1c2ccccc2C2C(c3ccccc31)C1c3ccccc3C(=NCCO)c3ccccc3C21 (configuration not stated)"
result = "35.9 µM"

[[record]]
compound = "O=C(c1cc2c(C(F)(F)F)onc2c2ccccc12)C(F)(F)F"
result = "21.6 µM"

[[record]]
compound = "Cc1ccc(C(=O)CCC2C(=O)CC(C)(C)CC2=O)cc1"
result = "55.1 µM"

[[record]]
compound = "O=CC1OC(=O)c2cc(O)c(O)c(O)c2-c2c(cc(O)c(O)c2O)C(=O)OC1C(O)C(O)CO (configuration not stated)"
result = "85.5 µM"

[[record]]
compound = "COc1ccc2c(c1)CCCN1CCc3cc(OC)c(OC)cc3C21 (configuration not stated)"
result = "> 100 µM"

[[record]]
compound = "O=S(=O)(NCCCNc1cc(-c2cn(-c3ccccc3)nc2-c2cccc(O)c2)ccn1)c1cccc2ccccc12"
result = "> 100 µM"

[[record]]
compound = "O=C1/C(=C/c2cccs2)NC(=S)N1CN1CCOCC1"
result = "> 100 µM"

[[record]]
compound = "Cc1ccc2cccc3c2c1CC1(C3=O)S(=O)(=O)OCCOS1(=O)=O"
result = "> 100 µM"

[[record]]
compound = "O=c1ccccc(-c2ccc(-c3ccco3)cc2)c1O"
result = "> 100 µM"

[[record]]
compound = "O=C(CCc1ccccc1CO)NCCc1ccccc1"
result = "> 100 µM"

[[record]]
compound = "COc1cc2c3c(n(Cc4ccccc4)c(=O)c2cc1OC)-c1ccccc1C3=O"
result = "> 100 µM"

[[record]]
compound = "C[C@@H](Oc1cc(NS(=O)(=O)N2CCC2)nc(SCc2cccc(F)c2F)n1)[C@@H](O)CO"
result = "> 100 µM"

[[record]]
compound = "NCCCc1c(-c2ccccc2)nc(N)[nH]c1=O"
result = "> 100 µM"

[[record]]
compound = "COC1OC(CBr)C(OC(c2ccccc2)(c2ccccc2)c2ccccc2)C(OC(c2ccccc2)(c2ccccc2)c2ccccc2)C1OC(c1ccccc1)(c1ccccc1)c1ccccc1 (configuration not stated)"
result = "> 100 µM"

[[record]]
compound = "O=C1OC(C2OC(=O)c3cc(O)c(O)c(O)c3-c3c(O)c(O)c4oc(=O)c5c(c(O)c(O)c6oc(=O)c3c4c65)-c3c(cc(O)c(O)c3O)C(=O)OCC2O)C2OC(=O)c3c(c(O)c(O)c(O)c3[C@H]2O)-c2c1cc(O)c(O)c2O (some centres not stated)"
result = "37.6 µM"

[[record]]
compound = "O=c1[nH]c(Nc2cccc(Br)c2)nc2nc[nH]c12"
result = "> 100 µM"

[[record]]
compound = "Cc1cccc2c1O/C(=C\\c1ncc([N+](=O)[O-])n1C)C2=O"
result = "0.597 µM"

[[record]]
compound = "CCc1n[nH]c(=O)n1NC(=O)c1ccccc1C(=O)O"
result = "> 100 µM"

[[record]]
compound = "CCOC(=O)/C(C#N)=C\\C=C1/C=CNC2=NCCN21"
result = "> 100 µM"

[[record]]
compound = "COc1cc(C(=O)Nc2c3ccccc3nc3ccccc23)cc(OC)c1OC"
result = "> 100 µM"

[[record]]
compound = "CC1(C)CCC2(C(=O)O)CC[C@]3(C)C(=CCC4C5(C)CC[C@H](OC6OC(C(=O)O)C(O)C(OC7OC(CO)C(O)C(O)C7O)C6OC6OC(CO)C(O)C(O)C6O)C(C)(C)C5CCC43C)C2C1 (some centres not stated)"
result = "> 100 µM"

[[record]]
compound = "CC1(C)C[C@H](O)[C@H](O)[C@]23C(=O)O[C@H](O)[C@H]2C(C=O)=CC[C@@H]13"
result = "> 100 µM"

[[record]]
compound = "CC(C)(C)OC(=O)Nc1cc(-c2ccccc2)co1"
result = "> 100 µM"

[[record]]
compound = "O=C1CC(c2ccc[nH]2)=NN1c1ccccc1"
result = "> 100 µM"

[[record]]
compound = "C/C(=N\\NS(=O)(=O)c1ccc(C)cc1)c1c(O)cc(C)oc1=O"
result = "> 100 µM"

[[record]]
compound = "Cc1ccc(O)c(-c2csc(NCN3CCN(CNc4nc(-c5cc(C)ccc5O)cs4)CC3)n2)c1"
result = "> 100 µM"

[[record]]
compound = "COC(=O)[C@H](Cc1ccccc1)NP(=O)(O)OCC1OC(n2cc(C)c(=O)[nH]c2=O)CC1N=[N+]=[N-] (some centres not stated)"
result = "> 100 µM"

